test: Ocular pharmacokinetic study in rabbit eyes, single topical ocular dose; type: in vivo; conditions: ciliary body, single 300 μg topical ocular dose, 1.0 hr post-dosing, read-out: Ciliary Body Concentration
measured-property: concentration at 1 hr (nM)
One number for each entry, in nM.

Please indicate concentration at 1 hr recorded for CNC(=O)c1ccc(/C=C/C(=O)NCC(=O)N(C)c2ccc(Cl)c(COc3cccc4c(OCc5ccccn5)cc(C)nc34)c2Cl)cc1
5.52

====

Target: B2-receptors in h-NPE cells (Homo sapiens)
Construct: B2-receptor proteins in h-TM, h-CM and h-NPE cells; endogenous in cells; host or cells: human trabecular meshwork (h-TM), human ciliary muscle (h-CM) and human non-pigmented ciliary epithelial (h-NPE) cells
Sequence (P30411 whole entry): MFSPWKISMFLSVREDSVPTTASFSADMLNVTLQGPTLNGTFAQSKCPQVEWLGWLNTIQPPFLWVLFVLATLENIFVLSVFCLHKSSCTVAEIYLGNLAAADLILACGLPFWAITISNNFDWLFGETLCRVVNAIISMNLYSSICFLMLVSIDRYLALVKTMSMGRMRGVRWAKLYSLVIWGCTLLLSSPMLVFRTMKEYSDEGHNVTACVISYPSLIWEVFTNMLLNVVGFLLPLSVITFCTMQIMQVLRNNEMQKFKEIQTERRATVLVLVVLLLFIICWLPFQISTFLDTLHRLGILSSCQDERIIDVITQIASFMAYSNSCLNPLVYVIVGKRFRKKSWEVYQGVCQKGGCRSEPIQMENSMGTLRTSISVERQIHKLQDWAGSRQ
Experiment: [Ca2+]i mobilization (FLIPR) in h-NPE cells, agonist mode
Type: cell-based
Conditions: h-NPE cells; mean ± SEM; read-out: Intrinsic Activity (Emax, % max relative to BK)
Method: On the day of the experiment, one vial of FLIPR Calcium Assay Kit dye is re-suspended in 50 mL of a FLIPR buffer consisting of Hank's Balanced Salt Solution (HBSS), 20 mM HEPES, and 2.5 mM probenecid, pH 7.4. […] At the beginning of an experimental run, a signal test is performed to check the basal fluorescence signal from the dye-loaded cells and the uniformity of the signal across the plate. […]
Define the label as Satisfied when Emax is strictly less than 80% and as Not satisfied in all remaining cases.

Worked examples follow.
smiles-data	class-name
N=C(N)NCCC[C@H](N)C(=O)N1CCC[C@H]1C(=O)N1CCC[C@H]1C(=O)NCC(=O)N[C@@H](Cc1ccccc1)C(=O)N[C@@H](CO)C(=O)N1CCC[C@H]1C(=O)N[C@@H](Cc1ccccc1)C(=O)O	Satisfied
CSCC[C@H](N)C(=O)N[C@@H](CCCCN)C(=O)N[C@@H](CCCNC(=N)N)C(=O)N1CCC[C@H]1C(=O)N1CCC[C@H]1C(=O)NCC(=O)N[C@@H](Cc1ccccc1)C(=O)N[C@@H](CO)C(=O)N1CCC[C@H]1C(=O)N[C@@H](Cc1ccccc1)C(=O)N[C@@H](CCCNC(=N)N)C(=O)O	Satisfied
Cc1cc(OCc2ccccn2)c2cccc(OCc3c(Cl)ccc(N(C)C(=O)CNC(=O)/C=C/c4ccc(/C=C/c5ccncc5)nc4)c3Cl)c2n1	Not satisfied

Take the compound N=C(N)NCCC[C@H](NC(=O)[C@H](Cc1ccccc1)NC(=O)[C@@H]1CCCN1C(=O)[C@H](CO)NC(=O)[C@H](Cc1ccccc1)NC(=O)CNC(=O)[C@@H]1CCCN1C(=O)[C@@H]1CCCN1C(=O)[C@H](CCCNC(=N)N)NC(=O)[C@@H](N)CCCCN)C(=O)O and say whether its Emax is less than 80%.
Not satisfied

Take the compound CNC(=O)c1ccc(/C=C/C(=O)NCC(=O)N(C)c2ccc(Cl)c(COc3cccc4c(OCc5ccccn5)cc(C)nc34)c2Cl)cc1 and say whether its Emax is less than 80%.
Satisfied

Where these numbers come from: patent US8173668B1
